Task for the reader: assign each of the following compounds its reported MIC.
tested on: Escherichia coli K-12 JR66/W677; assay: M.I.C. by standard serial dilution method; type: cell-based; details: K12JR66/W677, 18 h, read-out: minimum inhibitory concentration (M.I.C.)

For each of the items listed, what is its MIC?
1. NCC(O)C(=O)N[C@@H]1C[C@H](N)[C@@H](O[C@H]2O[C@H](CN)[C@@H](O)C[C@H]2N)[C@H](O[C@@H]2O[C@H](CO)[C@H](O)[C@H]2O)[C@H]1O (stereo partly drawn)
2. NCC[C@H](O)C(=O)N[C@@H]1C[C@H](N)[C@@H](O[C@H]2O[C@H](CN)[C@@H](O)C[C@H]2N)[C@H](O[C@@H]2O[C@H](CO)[C@H](O)[C@H]2O)[C@H]1O
3. NCC[C@H](O)C(=O)N[C@@H]1C[C@H](N)[C@@H](O[C@H]2O[C@H](CN)[C@@H](O)C[C@H]2N)[C@H](O[C@@H]2O[C@H](CN)[C@H](O)[C@H]2O)[C@H]1O
4. NCC[C@H](O)C(=O)N[C@@H]1C[C@H](N)[C@@H](O[C@H]2O[C@H](CN)[C@@H](O)C[C@H]2N)[C@H](O[C@@H]2O[C@@H](CO)[C@H](O)[C@H]2O)[C@H]1O
5. NCC[C@H](O)C(=O)N[C@@H]1C[C@H](N)[C@@H](O[C@H]2O[C@H](CN)[C@@H](O)C[C@H]2N)[C@H](O[C@@H]2O[C@H](CO)[C@@H](O)[C@H]2O)[C@H]1O

**Result**
["3.12 µg/mL", "0.39 µg/mL", "0.2 µg/mL", "1.56 µg/mL", "1.56 µg/mL"]

**Query** Report MIC for NC[C@H](O)C(=O)N[C@@H]1C[C@H](N)[C@@H](O[C@H]2O[C@H](CN)[C@@H](O)C[C@H]2N)[C@H](O[C@@H]2O[C@H](CO)[C@H](O)[C@H]2O)[C@H]1O please.
**Result** 0.78 µg/mL

The measurements presented in this section are drawn from patent US4065616A.
